These data points were gathered from patent US9499485B2.

- SYSTEM: Human ATX protein (Homo sapiens, UniProt Q13822)
- Construct: made in house
- PROTOCOL_NOTES: ATX biochemical FRET assay with FS-3 substrate
- CONDITION_SET: FS-3 2 μM, ATX 1.0 μg/mL, binned table, read-out: IC50 (μm)
pIC50: −log10 of the molar value.
READOUT_NAME: pIC50

Consider the worked cases shown below.
{"MOLECULE": "C[C@H]1CC[C@@H](Oc2ccc3cccc(CN4CCC[C@H](CC(=O)O)C4)c3c2C(F)(F)F)CC1", "READOUT_NAME": "pIC50", "REPORTED_RESULT": "5.30 to 6.30"}
{"MOLECULE": "CCCCCCCOc1ccc2cccc(CN3CCC(C(=O)O)CC3)c2c1", "READOUT_NAME": "pIC50", "REPORTED_RESULT": "< 5.30"}
{"MOLECULE": "O=C(O)C[C@H]1CCCN(Cc2cccc3ccc(O[C@H]4CC[C@@H](C(F)(F)F)CC4)c(C(F)(F)F)c23)C1", "READOUT_NAME": "pIC50", "REPORTED_RESULT": "5.30 to 6.30"}
{"MOLECULE": "CCCCCCCOc1ccc2c(CN3CCC(C(=O)O)CC3)cccc2c1", "READOUT_NAME": "pIC50", "REPORTED_RESULT": "< 5.30"}
{"MOLECULE": "C[C@H]1CC[C@@H](Oc2ccc3c(CN4CCC[C@H](CC(=O)O)C4)cccc3c2C(F)(F)F)CC1", "READOUT_NAME": "pIC50", "REPORTED_RESULT": "> 6.30"}

Entry C[C@H]1CC[C@@H](Oc2ccc3c(CN4C5CCC4CC(C(=O)O)C5)cccc3c2C(F)(F)F)CC1 (stereo partly drawn) ; pIC50 = 5.30 to 6.30
